assay.text: CCTE_Shafer_MEA_acute_spike_number: CCTE's Neural Acute Assay for Total Number of Spikes, Shafer Lab (AID 2284008)
The source made the active and inactive calls. How the source made its calls: active means hit-call score of the fitted dose curve at least 0.9, where 1 is the maximum; inactive means score below 0.9.
The reply should name one outcome from active, inactive

CC[C@H]1OC(=O)[C@H](C)[C@@H](O[C@H]2C[C@@](C)(OC)[C@@H](O)[C@H](C)O2)[C@H](C)[C@@H](O[C@@H]2O[C@H](C)C[C@H](N(C)C)[C@H]2O)[C@](C)(O)C[C@@H](C)C(=O)[C@H](C)[C@@H](O)[C@]1(C)O; inactive
CCC(C)(C)C(=O)O[C@H]1C[C@@H](C)C=C2C=C[C@H](C)[C@H](CC[C@@H]3C[C@@H](O)CC(=O)O3)[C@H]21; inactive
Cn1cnc([N+](=O)[O-])c1Sc1ncnc2nc[nH]c12; inactive
O=P(OC(CCl)CCl)(OC(CCl)CCl)OC(CCl)CCl; inactive
CC(C)=CCCC(C)=CC=O; inactive

Inquiry: // outcome(item) with item = Cc1[nH]cnc1C[C@H]1CCc2c(C)c3ccccc3n2C1=O
Reply text: active

Inquiry: // query: CC[C@H]1CC[C@H](NCc2cc3c(cc2OC)[C@H]2C[C@H]2C(=O)N3C)[C@H](c2ccccc2)N1
Reply text: active

Inquiry: Also check CCOC(=O)c1ccc(C2CCC(NC[C@H](O)COc3ccc(O)c(NS(C)(=O)=O)c3)CC2)cc1 (some centres undefined)
Reply text: inactive

Inquiry: Same for O=C(O)CCN(C1(C(=O)NO)CCCC1)S(=O)(=O)c1ccc(Oc2ccc(F)cc2)cc1
Reply text: inactive

###

Read-out: Interleukin-1 alpha (IL1a), IL1A (gene 3552)
assay.text: BSK_KF3CT_IL1a: BioMAP Diversity Plus: KF3CT Assay for Interleukin-1 alpha (IL1a) Biomarker Activity (AID 2283070)
assay.conditions: primary human keratinocytes with fibroblasts; actives raise or lower the signal
Calls of active or inactive are those of the source. How the source made its calls: active means hit-call score of the fitted dose curve at least 0.9, where 1 is the maximum; inactive means score below 0.9.
// classify into active, inactive

Some entries whose results are on file:
O=C(O)CC(O)C(=O)O (stereo unspecified); inactive
Cc1[nH]cnc1C[C@H]1CCc2c(C)c3ccccc3n2C1=O; inactive
COCCOc1cc2cc(C(=O)NC3CCN(C(C)C)CC3)n(CC(=O)Nc3ccc(Cl)cn3)c2cn1; inactive

Inquiry: // param item: O=C(CCCCCCCCc1cccnc1)N1CCC(C=C(c2ccccc2)c2ccccc2)CC1 ; yields the recorded call
Reply text: active

Inquiry: Try this compound too: Cn1c(=O)c2c(ncn2C)n(C)c1=O
Reply text: inactive

Inquiry: And what about the compound CC(C)=CCC/C(C)=C\CO ?
Reply text: inactive

###

Read-out: UDP glucuronosyltransferase (UGT1A1), UGT1A1 (gene 54658)
assay.text: LTEA_HepaRG_UGT1A1: Life Technologies and Expression Analysis (LTEA) Assay for UDP glucuronosyltransferase (UGT1A1) using HepaRG (AID 2283538)
assay.conditions: mRNA level, 48 h; actives raise or lower the signal
Activity calls are given as the source filed them. How the source made its calls: active means hit-call score of the fitted dose curve at least 0.9, where 1 is the maximum; inactive means score below 0.9.
readout.label: AC50

Study these solved cases before continuing.
COC(=O)CC(=O)OC; inactive
Nc1cccc(N)c1; inactive
O=C(NS(=O)(=O)/C=C/c1ccccc1)c1ccc(F)cc1Cl; 17.1 µM (active)
Cc1c(-c2cccnc2)c2ccccc2n1CCCCC(=O)O; inactive
Cc1ccc(C)c(O)c1; inactive

Inquiry: Sample Cc1ccc(O)cc1 — what was its AC50?
Reply text: inactive

Inquiry: What do you get for O=C(CCCCCCCCc1cccnc1)N1CCC(C=C(c2ccccc2)c2ccccc2)CC1 ?
Reply text: 32.9 µM (active)

Inquiry: Then what about the molecule Cn1c(=O)c2c(ncn2C)n(C)c1=O ?
Reply text: inactive

Inquiry: CC(C)(O)c1coc(S(=O)(=O)NC(=O)Nc2c3c(cc4c2CCC4)CCC3)c1 ?
Reply text: 21.5 µM (active)
